QUANTITY NAME: pIC50
Give only the number. pIC50 is defined as minus log10 of concentration in molar units.

Short answer please: pIC50, UniProt:P0ABQ4, entry CCC(Cc1coc2nc(N)cc(N)c12)c1ccc(C(=O)NC(CCC(=O)O)C(=O)O)cc1 (stereo unspecified) 6.36

----------
# TARGET SYSTEM: Thymidylate synthase (Escherichia coli)
# Sequence (C3SWJ7 whole entry): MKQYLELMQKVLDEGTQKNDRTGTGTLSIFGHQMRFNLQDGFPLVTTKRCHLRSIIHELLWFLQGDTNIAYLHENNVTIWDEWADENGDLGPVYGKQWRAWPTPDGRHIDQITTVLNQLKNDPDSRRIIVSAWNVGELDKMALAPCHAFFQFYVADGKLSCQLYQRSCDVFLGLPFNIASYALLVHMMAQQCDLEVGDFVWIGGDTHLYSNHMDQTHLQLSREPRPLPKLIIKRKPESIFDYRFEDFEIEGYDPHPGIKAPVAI
QUANTITY NAME: IC50 (µM)
Express your answer in µM, writing the number without its unit.

Item under review: CCC(Cc1coc2nc(N)cc(N)c12)c1ccc(C(=O)NC(CCC(=O)O)C(=O)O)cc1 (stereo unspecified) . Reported IC50? 220

All figures here come from ChEMBL document CHEMBL1135938.
